System: BT-549 breast
Assay: NCI tumour cell line growth inhibition, 48 h
Measured Quantity: TGI (µM)
Provide only the numeric value, understood in µM.

Illustrative cases are given below, each with its answer.
O=C1c2ccccc2C(=O)c2c(NC(=O)C(Cl)CCl)cccc21 (stereo not drawn) = 31.2
NC(=O)c1ccc2nc(-c3ccc(C4(N)CCC4)cc3)c(-c3ccccc3)n2n1 = 14.5
Cc1cc(O)c(C2=NN(c3ccc(S(N)(=O)=O)cc3)C(c3ccccc3O)C2)cc1Cl (stereo not drawn) = 6.11
CCCCCCCCCCCCOC1C(CNCC2OC3OC(C)(C)OC3C2NC(=O)Nc2ccc(C(F)(F)F)cc2)OC2OC(C)(C)OC21 (stereo not drawn) = 14.4
C[C@@H]1[C@H]2[C@H](C=C3[C@@H]4CC[C@H]5Cc6nc7c(nc6C[C@]5(C)[C@H]4C[C@@H](O)[C@@]32C)C[C@@H]2CC[C@H]3C4=C[C@@H]5O[C@@]6(CC[C@](C)(CO)O6)[C@@H](C)[C@@]5(O)[C@@]4(C)[C@H](O)C[C@@H]3[C@@]2(C)C7)O[C@]12CCC(C)(C)O2 = 15
COc1cc(/C=C2\CCCC3C2=Nc2ccccc2NC3c2cc(OC)c(OC)c(OC)c2)cc(OC)c1OC (stereo not drawn) = 5.5
O=C1N(CN2CCOCC2)CN(CN2CCOCC2)C(=O)N1Cc1ccc(-c2ccc(CN3C(=O)N(CN4CCOCC4)CN(CN4CCOCC4)C3=O)cc2)cc1 = 39.1
O=C1N[C@H]2C(=O)c3c(Cl)sc(Cl)c3[C@H]2O1 = 54.5

Form field TGI, entry CN(C)CCNC(=O)c1cccc2cc([N+](=O)[O-])ccc12 : 13.8

Form field TGI, entry COc1ccccc1-c1ccc2nc(NC(=O)Nc3cc(C(F)(F)F)cc(C(F)(F)F)c3)sc2c1 : 3.72

Form field TGI, entry COc1ccc2c(O)c(/C=C3\N=Nc4ncccc43)oc2c1C[C@H]1CCNC[C@H]1F : 2.3

Form field TGI, entry Cc1c2cnccc2c(C)c2c1c1cc(C(=O)O)ccc1n2C : 4.82

----------
Tested on: NCI-H460 lung
Assay: NCI tumour cell line growth inhibition, 48 h
Overview of reported TGI across a group of compounds:

Illustrative cases are given below, each with its answer.
NC(N)=NCc1ccc2c(c1)OCO2 = > 100 µM
O=C(O)CC(C(=O)O)C1c2ccccc2-c2ccccc21 (stereo unspecified) = > 100 µM
COc1cc(C(C#N)NNC(=O)Cc2ccccc2)cc(OC)c1OC (stereo unspecified) = > 100 µM
CC1(C(=O)NCCN(CCNC(=O)C2(C)CC3(C)CC(C)(C2)C(=O)NC3=O)CCNC(=O)C2(C)CC3(C)CC(C)(C2)C(=O)NC3=O)CC2(C)CC(C)(C1)C(=O)NC2=O (stereo unspecified) = > 100 µM

Form field TGI, entry CNS(=O)(=O)c1ccccc1C(=N)c1ccccc1 : > 100 µM

Form field TGI, entry c1ccc(CCCC2Sc3cccc4cccc(c34)S2)cc1 : > 100 µM

Form field TGI, entry O=C(CCc1ccco1)NC1CCN(CC2(c3ccc(Cl)cc3)CCC2)CC1 : 28.4 µM

Form field TGI, entry Cc1nc2c(=O)n(C)c(=O)nc-2n(CCO)c1C : > 100 µM

Form field TGI, entry COc1ccc([C@@H]2CC(=O)NCCCNCCCCNCCCN2)cc1 : > 100 µM

Form field TGI, entry O=c1c2[nH]c3ccccc3c2nc2n1CCS2 : > 100 µM

Form field TGI, entry Nc1ccc(-c2ccc(Nc3cc(S(=O)(=O)O)c(N)c4c3C(=O)c3ccccc3C4=O)cc2)c(S(=O)(=O)O)c1 : > 100 µM

Form field TGI, entry Cc1ccc(-c2cn3c(nc4ccccc43)c(-c3ccccc3)n2)cc1 : > 100 µM

Form field TGI, entry NC(=S)N/N=C1\C(=O)N(CCc2ccccc2)C(=O)C1C(=O)NCCc1ccccc1 (stereo unspecified) : > 100 µM

Form field TGI, entry COc1cccc2c1nc1cccc(OC)c1[n+]2[O-] : 10.7 µM

Form field TGI, entry C=C(C)C1CC2=C(O1)C(=O)c1ccccc1C2=O (stereo unspecified) : 33.8 µM

Form field TGI, entry COc1cc(CNc2nc3ccccc3n2Cc2ccccc2)cc(CN2CCOCC2)c1O : > 100 µM

Form field TGI, entry CC(=O)/C(N=Nc1ccc(-n2c(C)nc3ccc(Br)cc3c2=O)cc1)=C(/C)O : > 100 µM

Form field TGI, entry O=C(Nc1ccc(Cl)cc1F)c1cc(F)ccc1O : 13.5 µM

Form field TGI, entry CCOC(=O)C12CCSC1C1(C#N)C(C#N)=CC2(N=P(c2ccccc2)(c2ccccc2)c2ccccc2)n2c(=O)n(-c3ccccc3)c(=O)n21 (stereo unspecified) : > 100 µM

Form field TGI, entry CCN1/C(=C/C=C/C=C/c2sc3ccccc3[n+]2CC)Sc2ccccc21 : 1.06 µM

Form field TGI, entry C/C(=C1/N=C(c2ccccc2)OC1=O)c1ccc(C)cc1 : > 100 µM

----------
System: MDA-MB-435
Assay: NCI tumour cell line growth inhibition, 48 h
Overview of reported TGI across a group of compounds:
Provide only the numeric value, understood in µM.

Illustrative cases are given below, each with its answer.
O=C1CCc2nc3ncccc3cc2C1 = 82.3
CCN1/C(=C/C=C/C=C/c2sc3ccccc3[n+]2CC)Sc2ccccc21 = 1.31
COc1ccc2c(c1)CC[C@@H]1[C@@H]2CC[C@]2(C)c3[nH]ncc3C[C@@H]12 = 44.5
C=C(C)C(=O)OC1C(C(C)CCCO)=C(CO)CC2OC(=O)C(=C)C21 (configuration not stated) = 52.1
CCc1cccc(CC)c1Nc1nc2c(s1)C(=O)c1ccccc1C2=O = 31.9

Form field TGI, entry CCOC(=O)/C(=C\c1ccnc2ccccc12)P(=O)(OCC)OCC : 9.95

Form field TGI, entry CC(C)(C)OC(=O)N1CC(Cn2cc(C(F)(F)F)c3c(Cl)ncnc32)C1 : 3.14

Form field TGI, entry CC(C)C(C/C=C1/CC(CO)(COC(=O)C(C)(C)C)OC1=O)C(C)C (configuration not stated) : 21.5

Form field TGI, entry C[C@H](C(=O)N[C@@H](Cc1ccc(-c2ccccc2)cc1)C(=O)NC1CC(C)(C)N(C)C(C)(C)C1)c1ccc(-c2ccccc2)c(F)c1 : 2.56

Form field TGI, entry COc1ccc2[nH]c(-c3ccccc3)c(C=C(C#N)C#N)c2c1 : 4.68

Form field TGI, entry C[C@@H]1[C@H]2[C@H](C=C3[C@@H]4CC[C@H]5Cc6nc7c(nc6C[C@]5(C)[C@H]4C[C@@H](O)[C@@]32C)C[C@@H]2CC[C@H]3C4=C[C@@H]5O[C@@]6(CC[C@](C)(CO)O6)[C@@H](C)[C@@]5(O)[C@@]4(C)[C@H](O)C[C@@H]3[C@@]2(C)C7)O[C@]12CCC(C)(C)O2 : 24.3

Form field TGI, entry CSC1=Nc2c(c(C)c(-c3ccccc3)n2CCCCl)C2=NC(=O)CN12 : 4.65

Form field TGI, entry CN(C)/N=C1\C=C2CC[C@H](O[Si](C)(C)C(C)(C)C)[C@@]2(C)CC1 : 32

Form field TGI, entry Cc1cc(S(N)(=O)=O)c(S/C(=N\Nc2ccc([N+](=O)[O-])cc2)c2ccc(O)cc2)cc1Cl : 3.44

Form field TGI, entry CN(C)Cc1cc(N=Nc2ccccc2Cl)ccc1O : 32.9

Form field TGI, entry COc1ccc2c(c1)C(=O)c1c-2c(OCCN(C)C)nc2cc(OC)ccc12 : 3.72

Form field TGI, entry CN(CCCCN1CCCC1)CCCCN(C)C(=O)Cc1ccc(Cl)c(Cl)c1 : 5.3

----------
Tested on: XF 498 CNS
Assay: NCI tumour cell line growth inhibition, 48 h
Measured Quantity: TGI (µM)
Provide only the numeric value, understood in µM.

COc1ccc2nc3ccccc3c(NCCCCCN(CCCl)CCCl)c2c1 = 0.0717

// next item, TGI requested
Bench note, XF 498 CNS: CN(C)C(=S)/N=c1\ssc(=S)n1-c1ccccc1 , TGI reads 27.9

----------
Test system: SK-OV-3 ovarian
Assay: NCI tumour cell line growth inhibition, 48 h
Measured Quantity: TGI

Illustrative cases are given below, each with its answer.
CCOC(=O)c1c(C)noc1/N=N/N(CCO)CCO = > 100 µM
OC1CSCCCSCCSCCCSC1 = > 100 µM
CCN(CC)CCOc1ccc(N2Cc3ccccc3C2=O)cc1 = > 10 µM

Form field TGI, entry Fc1ccc2c(c1)SC1Oc3ccccc3-c3c1c-2nn3-c1ccccc1 (stereo unspecified) : > 100 µM

Form field TGI, entry Cc1ccc(S(=O)(=O)NC(=O)NC(C(=O)O)C(C)O)cc1 (stereo unspecified) : > 100 µM

Form field TGI, entry COc1cc2c(cc1O)[C@H](C)C(c1ccccc1OC)O2 (stereo partly specified) : > 100 µM
